Tested on: LPS-induced TNFα in monocytes
Assay: Monocytes assay: LPS-triggered TNFα (ELISA)
Type: cell-based, human
Conditions: Homo sapiens, Monocyte, LPS 200 ng/mL, supernatant after 4 h
molecules and their reported EC50

Some molecules with known EC50 results, for comparison:
molecule	EC50
COc1cc(-c2cnc3cc(OCCN4CCOCC4)ccn23)cc2c1C(=O)N(CC(F)(F)F)CC2	0.1 to 1 µM
COc1cc(-c2cnc3cc(OC4C[C@H]5CC[C@@H](C4)N5)ccn23)cc(OC(F)F)c1C(=O)NC1CC1.Cl (stereo partly drawn) [Cpd 270, hydrochloride salt]	1 to 5 µM

Next molecule, EC50 to be filled in.
Known value: LPS-induced TNFα in monocytes EC50 of the molecule CCOC(=O)CN1[C@@H]2CC[C@H]1CC(Oc1ccn3c(-c4cc(OC)c(C(=O)NC5CC5)c(OC(F)F)c4)cnc3c1)C2 (stereo partly drawn) equals 0.0001 to 0.1 µM
